target: His-DDX3X^414-582 (Homo sapiens)
Construct: contained 10 µM His-DDX3X^414-582; His; made in house; host or cells: E. coli Rosetta2 (pET28a)
Sequence (O00571 414-582): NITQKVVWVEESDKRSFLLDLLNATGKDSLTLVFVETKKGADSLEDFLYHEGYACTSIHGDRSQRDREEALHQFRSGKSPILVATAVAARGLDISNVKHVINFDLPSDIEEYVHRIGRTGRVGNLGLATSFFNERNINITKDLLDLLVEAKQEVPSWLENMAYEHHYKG
assay.protocol: Direct-binding ELISA of biotinylated CK1 peptides on coated His-DDX3X^414-582
condition.info: 1 µg/well biotinylated peptide, 2.5 h, room temperature; HRP-streptavidin/ABTS, 405 nm; data normalized to δ-141 = 100%; n=3
Ends that are not written are not given here. * marks the point of attachment. Biotin = O=C1N[C@H]2[C@H](CS[C@H]2CCCCC(=O)*)N1
measured.property: Binding to His-DDX3X^414-582 (ELISA)

The cases that follow already have their Binding to His-DDX3X^414-582 (ELISA) on record.
substance	Binding to His-DDX3X^414-582 (ELISA)
δ-141: CK1δ-derived 15mer peptide (Biotin-SGSGKGNLVYIIDFGLAKK)	strongest binding
ε-61: CK1ε-derived 15mer peptide (Biotin-SGSGGGVGIPSIKWCGAEG)	strongest binding
ε-41: CK1ε-derived 15mer peptide (Biotin-SGSGCVKTKHPQLHIESKF)	to a lesser extent
ε-241: CK1ε-derived 15mer peptide (Biotin-SGSGCKGYPSEFSTYLNFC; cysteine pairing not given here)	strongest binding

Exercise: Please report the recorded Binding to His-DDX3X^414-582 (ELISA) for δ-31: CK1δ-derived 15mer peptide (Biotin-SGSGAGEEVAIKLECVKTK) .
Key: strongest binding

Exercise: For δ-91: CK1δ-derived 15mer peptide (Biotin-SGSGDLFNFCSRKFSLKTV) , what is its reported Binding to His-DDX3X^414-582 (ELISA)?
Key: strongest binding

Exercise: Requested field: Binding to His-DDX3X^414-582 (ELISA). Item: δ-231: CK1δ-derived 15mer peptide (Biotin-SGSGKKMSTPIEVLCKGYP)
Key: to a lesser extent
